assayDetails: chemical genetic growth profiling, strain panel (AID 1159580);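 also: tested at 20 µM; growth read once vehicle control cultures reached saturation at 30 °C; 1 = growth at the plate median or of vehicle wells; lower values mean less growth of the strain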
protocolConditions: S. cerevisiae deletion strains, growth OD, locus YDL185W, strain tfp1, stronger effect = lower value
Hit rate of the full screen: of about 5,500 compounds, about 2,000 (36%) were called active. Inconclusive results (about 18%) are left out. The list shows a part of the results.

# compound, normalized growth
records = [
    ("COP(=S)(OC)Oc1ccc(SC)c(C)c1", 0.986),
    ("CC12CCC(CC1)C(C)(C)O2", 1.01),
    ("Cc1cccc(CN2CCN(C(c3ccccc3)c3ccc(Cl)cc3)CC2)c1 (centres undefined)", 0.99),
    ("C[C@@H]1C[C@@H]([C@H](O)CC2CC(=O)NC(=O)C2)C(=O)[C@@H](C)C1", 0.0581),
    ("O=C(O)CCCCCCCCCCCCC1C=CCC1 (centres undefined)", 1.01),
    ("O=C(O)CNCP(=O)(O)O", 1.01),
    ("COc1ccccc1-c1cc(=O)c2cccc(OC)c2o1", 0.986),
    ("CCOC(=O)C1=C[C@]2(CC)CCCN3CCc4c(n1c1ccccc41)[C@@H]32", 0.985),
    ("Nc1nc2c(c(=O)[nH]1)N(C=O)C(CNc1ccc(C(=O)N[C@@H](CCC(=O)O)C(=O)O)cc1)CN2 (some centres undefined)", 0.986),
    ("COS(C)(=O)=O", 1.01),
    ("c1ccc2[nH]c(-c3cscn3)nc2c1", 1.01),
    ("O=C1N=C(O)CN1/N=C\\c1ccc(-c2ccc([N+](=O)[O-])cc2)o1", 1.04),
    ("COc1c(C(=O)O)ccc2c1CCC(C)(C)O2", 0.976),
    ("O=C1OCCN1/N=C\\c1ccc([N+](=O)[O-])o1", 0.993),
    ("COc1ccccc1-c1cc(=O)c2c(OC)cccc2o1", 0.987),
    ("OCC(S)CS (centres undefined)", 0.935),
    ("S=c1[nH]c2ccccc2s1", 0.979),
    ("Cc1ccc(C(C)C)cc2c(C)ccc1-2", 1.02),
    ("CN(Cc1cc(Br)cc(Br)c1N)C1CCCCC1", 1.02),
    ("C#C[C@]1(O)CCC2C3CCc4cc(O)ccc4C3CC[C@@]21C (some centres undefined)", 1.02),
    ("CC(C)C1=CC2=CCC3[C@](C)(CCC[C@]3(C)C(=O)O)C2CC1 (some centres undefined)", 0.975),
    ("O=C(/C=C/c1ccc(O)c(O)c1)O[C@@H]1C[C@](O)(C(=O)O)C[C@@H](O)[C@H]1O", 1.01),
    ("CCCN(CCC)C(=O)C(CCC(=O)O)NC(=O)c1ccccc1 (centres undefined)", 0.958),
    ("OC/C=C/c1ccc(O)c(O)c1", 0.953),
    ("O=C1O[C@@H](CO)[C@H](O)[C@@H](O)[C@@H]1O", 1),
    ("Nc1nc2ncc(CNc3ccc(C(=O)N[C@@H](CCC(=O)O)C(=O)O)cc3)nc2c(=O)[nH]1", 0.956),
    ("COc1cc(/C=C/C(=O)O)ccc1O", 0.971),
    ("CCOC(=O)c1ccc(N)cc1", 0.994),
    ("COc1c(C2COc3cc4c(cc3C2=O)CC(O)C(C)(C)O4)ccc2c1CCC(C)(C)O2 (centres undefined)", 1.05),
]

====

assayDetails: chemical genetic growth profiling, strain panel (AID 1159580);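 also: tested at 20 µM; growth read once vehicle control cultures reached saturation at 30 °C; 1 = growth at the plate median or of vehicle wells; lower values mean less growth of the strain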
protocolConditions: S. cerevisiae deletion strains, growth OD, locus YDR297W, strain sur2, stronger effect = lower value
Out of some 5,500 compounds screened, about 2,000 (36%) were called active. Inconclusive results (about 18%) are left out. Some of the results follow.

# compound, normalized growth
measured = [
    ("C[C@](N)(Cc1ccc(O)cc1)C(=O)O", 0.996),
    ("C[C@@H]1C[C@@H]([C@H](O)CC2CC(=O)NC(=O)C2)C(=O)[C@@H](C)C1", 0.0532),
    ("O=C1CN(/N=C\\c2ccc([N+](=O)[O-])o2)C(=O)N1", 0.983),
    ("CC(COc1ccccc1)N(CCCl)Cc1ccccc1 (configuration not stated)", 0.995),
    ("COc1cc(/C=C/C(=O)O)cc(OC)c1OC", 1),
    ("O=C(O)c1cc(=O)c2c(OCC(O)COc3cccc4oc(C(=O)O)cc(=O)c34)cccc2o1", 0.987),
    ("NC(=O)N/N=C\\c1ccc([N+](=O)[O-])o1", 0.991),
    ("O=C1OCCN1/N=C\\c1ccc([N+](=O)[O-])o1", 0.992),
    ("COP(=S)(OC)Oc1ccc(SC)c(C)c1", 1.01),
    ("CCn1cc(C(=O)O)c(=O)c2cnc(N3CCCC3)nc21", 1.01),
    ("COc1ccc(/C=C/C(=O)c2cc(O)ccc2O)cc1", 0.362),
    ("O=C1N=C(O)CN1/N=C\\c1ccc(-c2ccc([N+](=O)[O-])cc2)o1", 0.984),
    ("C[C@](N)(Cc1ccc(O)c(O)c1)C(=O)O", 0.963),
    ("CC1=CC(=O)CC(C)(C)C1(O)/C=C/C(C)=C\\C(=O)O (configuration not stated)", 1.03),
    ("CCn1cc(C(=O)O)c(=O)c2ccc(C)nc21", 0.928),
    ("CCn1cc(C(=O)O)c(=O)c2cc3c(cc21)OCO3", 0.98),
    ("CCOC(=O)C(C)(N)Cc1ccc(O)c(O)c1 (configuration not stated)", 0.974),
]

====

assayDetails: chemical genetic growth profiling, strain panel (AID 1159580);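 also: tested at 20 µM; growth read once vehicle control cultures reached saturation at 30 °C; 1 = growth at the plate median or of vehicle wells; lower values mean less growth of the strain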
protocolConditions: S. cerevisiae deletion strains, growth OD, locus YLR262C, strain YPT6
Screen size: about 5,500 compounds; about 2,000 (36%) were called active. About 18% were inconclusive and are not listed. Cut-off read from the data, not from the text of the source: active = normalized growth mostly below about 0.91 (no sharp cut-off); inconclusive = no clear call, values can overlap the other calls; inactive = mostly above about 0.92. The list shows a part of the results.
Classes used: YES = active, NO = inactive

# compound, class
records = [
    ("CC(C)(C)OC(=O)N1CCN(Cc2ccccc2)CC1", "NO"),
    ("COc1ccccc1-c1cc(=O)c2cccc(OC)c2o1", "NO"),
    ("COc1cc(N=Cc2ccc3c(c2)OCO3)c(OC)cc1Cl", "NO"),
    ("CCOC(=O)c1c(C)csc1N", "NO"),
    ("CCOC(=O)c1c(-c2ccc(F)cc2)csc1N", "YES"),
    ("COC(=O)c1cc(OC)c(OC)cc1NS(=O)(=O)c1ccc(C)cc1", "NO"),
    ("COc1cc2c(cc1O)CC1c3c(cc(O)c(OC)c3-2)CCN1C (configuration not stated)", "NO"),
    ("COc1ccc2c(c1O)-c1c(OC)c(OC)cc3c1[C@H](C2)N(C)CC3", "NO"),
    ("O=C(CC(Nc1ccccc1)c1ccccc1)C1CC1 (configuration not stated)", "NO"),
    ("CCN(CC)CCOC(=O)C(Cc1cccc2ccccc12)CC1CCCO1 (configuration not stated)", "NO"),
    ("CN1c2ccccc2C(=O)NC1c1cc(Br)cs1 (configuration not stated)", "NO"),
    ("COC(=O)c1ccc([N+](=O)[O-])cc1Cl", "NO"),
]

====

assayDetails: chemical genetic growth profiling, strain panel (AID 1159580);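 also: tested at 20 µM; growth read once vehicle control cultures reached saturation at 30 °C; 1 = growth at the plate median or of vehicle wells; lower values mean less growth of the strain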
protocolConditions: S. cerevisiae deletion strains, growth OD, locus YGL253W, strain hxk2, stronger effect = lower value
In all, about 5,500 compounds went through this assay and about 2,000 (36%) were called active. Not shown: some 18% with an inconclusive outcome. The list shows a part of the results.

# molecule, normalized growth
records = [
    ("O=C(NC(Cc1cc(=O)[nH]c2ccccc12)C(=O)O)c1ccc(Cl)cc1 (stereo unspecified)", "1 (inactive)"),
    ("CCOC(=O)C(C)(N)Cc1ccc(O)c(O)c1 (stereo unspecified)", "0.978 (inactive)"),
    ("COc1cc2c(cc1O)CC1c3c(cc(O)c(OC)c3-2)CCN1C (stereo unspecified)", "1 (inactive)"),
    ("NC(=O)c1cnccn1", "1.02 (inactive)"),
    ("C[C@](N)(Cc1ccc(O)c(O)c1)C(=O)O", "0.981 (inactive)"),
    ("COc1ccc(/C=C/c2cc(O)cc(O)c2)cc1", "1.01 (inactive)"),
    ("COS(C)(=O)=O", "1 (inactive)"),
    ("CCn1cc(C(=O)O)c(=O)c2cnc(N3CCNCC3)nc21", "1.04 (inactive)"),
    ("NCc1ccc(S(N)(=O)=O)cc1", "1.01 (inactive)"),
    ("OC1CCCCC1N1CCC(c2ccccc2)CC1 (stereo unspecified)", "0.996 (inactive)"),
    ("CC1=C(/C=C/C(C)=C/C=C/C(C)=C/CO)C(C)(C)CCC1", "0.993 (inactive)"),
    ("O=C1O[C@@H](CO)[C@H](O)[C@@H](O)[C@@H]1O", "1.03 (inactive)"),
    ("CO[C@@H]1[C@@H](O[C@@H]2O[C@H](C)[C@@H](O[C@H]3C[C@@](C)(O)[C@H](O)[C@H](C)O3)[C@H](N(C)C)[C@H]2O)[C@@H](CC=O)C[C@@H](C)[C@@H](O[C@H]2CC[C@H](N(C)C)[C@@H](C)O2)/C=C/C=C/C[C@H](C)OC(=O)C[C@H]1O", "1.01 (inactive)"),
    ("CS(=O)(=O)OCCCCOS(C)(=O)=O", "1.03 (inactive)"),
    ("COc1ccc2c(c1O)-c1c(OC)c(OC)cc3c1[C@H](C2)N(C)CC3", "1.01 (inactive)"),
    ("NC(=O)c1cc[n+](CC2=C(C(=O)O)N3C(=O)C(NC(=O)C(c4ccccc4)S(=O)(=O)[O-])C3SC2)cc1 (stereo unspecified)", "0.992 (inactive)"),
    ("CC[C@@H]1[C@@H](O)N2C3C[C@H]1C1C(O)[C@]4(C[C@@H]12)c1ccccc1N(C)[C@@H]34 (stereo partly specified)", "1.04 (inactive)"),
    ("CCCc1cc(OC)c2c(c1)OCO2", "0.995 (inactive)"),
    ("CC1(C)O[C@@H]2CC3C4CCC5=CC(=O)C=C[C@]5(C)C4[C@@H](O)C[C@]3(C)[C@]2(C(=O)CO)O1 (stereo partly specified)", "1 (inactive)"),
    ("C=CC1=C(C)/C(=C/c2[nH]c(Cc3[nH]c(/C=C4\\NC(=O)C(C)=C4C=C)c(C)c3CCC(=O)O)c(CCC(=O)O)c2C)NC1=O", "1.01 (inactive)"),
    ("CCCNC(C)C(=O)Nc1ccccc1C (stereo unspecified)", "1.01 (inactive)"),
]
